# ASSAY TARGET: MAT2A recombinant protein (Homo sapiens)
# Sequence (P31153 whole entry): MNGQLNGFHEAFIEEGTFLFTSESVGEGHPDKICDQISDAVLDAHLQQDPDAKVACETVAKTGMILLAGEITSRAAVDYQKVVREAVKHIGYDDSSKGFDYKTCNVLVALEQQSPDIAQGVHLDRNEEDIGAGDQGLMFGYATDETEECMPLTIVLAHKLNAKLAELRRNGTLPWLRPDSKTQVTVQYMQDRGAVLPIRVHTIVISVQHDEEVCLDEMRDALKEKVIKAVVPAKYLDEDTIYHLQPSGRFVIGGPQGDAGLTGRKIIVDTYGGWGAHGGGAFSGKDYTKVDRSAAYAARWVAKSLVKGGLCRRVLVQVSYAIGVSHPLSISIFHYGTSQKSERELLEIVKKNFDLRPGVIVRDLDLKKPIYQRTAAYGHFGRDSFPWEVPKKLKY
# PROTOCOL DESCRIPTION: MAT2A inhibitory activity (malachite green colorimetric enzyme assay)
# Format: biochemical
# MEASUREMENT SETUP: read-out: MAT2A Inhibition
pIC50: −log10 of the molar value.
QUANTITY MEASURED: pIC50

Illustrative cases are given below, each with its answer.
compound="Cn1cc2c(n1)c(=O)n(-c1cccnc1C1CC1)c1nc(C3CC3)c(F)cc21 [Compound B359]" quantity_measured=pIC50 data_value=8.02
compound="O=c1c2n[nH]cc2c2ccc(C(F)(F)F)nc2n1-c1cccc2[nH]ncc12 [Compound B239]" quantity_measured=pIC50 data_value=7.83

1: Cn1cnc2c(=O)n(-c3cccnc3C3CC3)c3cc(Cl)c(F)cc3c21 [Compound B336]
2: Cc1cc(-n2c(=O)c3nn(C)cc3c3ccc(Cl)cc32)n(C)n1 [Compound B175]
Qu. Could you kindly indicate whether 1 or 2 has the higher pIC50 value? I would appreciate it if you answered with the label of your choice.
Ans. 1
(1: 7.92, 2: 7.09)
